Tested on: proliferating apocrine cultures (ASG5)
Test: Short circuit current (Isc) in Ussing chamber, proliferating apocrine cultures on Transwells
Assay type: cell-based, human
Conditions: proliferating apocrine; chloride-containing buffer; amiloride pre-treatment; Carbachol 200 μM, Isoprenaline ≧1 μM, LBK 170 nM, Histamine 200 μM, ATP 100 μM
In this section we review reported Peak agonist Isc response after amiloride pre-treatment, Control values for a set of compounds.
parameter-measured: Peak agonist Isc response after amiloride pre-treatment, Control (μA cm^−2)

Nc1ncnc2c1ncn2[C@@H]1O[C@H](COP(=O)(O)OP(=O)(O)OP(=O)(O)O)[C@@H](O)[C@H]1O [ATP, Adenosine triphosphate] | 1.8
NCCc1c[nH]cn1 | 1.9
CC(C)NCC(O)c1ccc(O)c(O)c1 (stereo not shown) | 1.8
C[N+](C)(C)CCOC(N)=O | 2.4
